- Tested on: MCF7 cells
- Test: Inhibitory activity of payloads on cell proliferation (Cell titer glo)
- Format: cell-based
- Settings: Homo sapiens, MCF7, 96 h; 4 days culture

# Compound, EC50 / nM
rows = [
    ("CN(CCCc1ccc(NC(=O)NCc2ccc3c(c2)CN(C2CCC(=O)NC2=O)C3=O)cc1Cl)C(=O)CO (stereo not drawn) [PL-1]", 62.1),
    ("CN(CCCc1ccc(NC(=O)NCc2ccc3c(c2)CN(C2CCC(=O)NC2=O)C3=O)cc1)C(=O)CO (stereo not drawn) [PL-5]", 228),
    ("CNCCOCCc1ccc(NC(=O)NCc2ccc3c(c2)CN(C2CCC(=O)NC2=O)C3=O)cc1Cl (stereo not drawn) [Control compound 1]", 983),
]
